Source of measurements: paper PMC12299981

Field: Km. Provide a value for each of the molecules that follow.
tested on: pooled human liver microsomes (HLM); experiment: Formation kinetics of SRL metabolites by pooled human liver microsomes; assay type: in vitro ADME; details: apparent Km of formation of the metabolite from sirolimus, Michaelis–Menten fit, n = 4
The reply should contain only the number, in µM.

Summary for this molecule, COC1CC2CCC(C)C(O)(O2)C(=O)C(=O)N2CCCCC2C(=O)OC(C(C)CC2CCC(O)C(O)C2)CC(=O)C(C)C=C(C)C(O)C(OC)C(=O)C(C)CC(C)C=CC=CC=C1C (stereo not drawn) : Km is 15

# Km (molecule: "CO[C@@H]1C[C@H](C[C@@H](C)[C@@H]2CC(=O)[C@H](C)/C=C(\C)[C@@H](O)[C@@H](OC)C(=O)[C@H](C)C[C@H](C)/C=C/C=C/C=C(\C)[C@@H](O)C[C@@H]3CC[C@@H](C)[C@@](O)(O3)C(=O)C(=O)N3CCCC[C@H]3C(=O)O2)CC[C@H]1O" ) is 24.4

For CO[C@H]1C[C@@H]2CC(O)[C@@H](C)[C@@](O)(O2)C(=O)C(=O)N2CCCC[C@H]2C(=O)O[C@H]([C@H](C)C[C@@H]2CC[C@@H](O)[C@H](OC)C2)CC(=O)[C@H](C)/C=C(\C)[C@@H](O)[C@@H](OC)C(=O)[C@H](C)C[C@H](C)/C=C/C=C/C=C/1C (stereo partly drawn) [12-Hydroxy SRL, 12-Hydroxy sirolimus] the molecule record lists Km as 7.21

---

test: Formation kinetics of SRL metabolites by pooled human liver microsomes; format: in vitro ADME; details: human, pooled human liver microsomes, pH 7.4; sum over metabolite formation, pooled HLM, CLint = Vmax/Km; read-out: total Clint derived from the formation of hydroxylated and demethylated SRL metabolites
measuredParameter: microsomal CLint (µL/min/mg)
Give the quantity in µL/min/mg, number only.

Quick note, microsomal CLint for "CO[C@H]1C[C@@H]2CC[C@@H](C)[C@@](O)(O2)C(=O)C(=O)N2CCCC[C@H]2C(=O)O[C@H]([C@H](C)C[C@@H]2CC[C@@H](O)[C@H](OC)C2)CC(=O)[C@H](C)/C=C(\C)[C@@H](O)[C@@H](OC)C(=O)[C@H](C)C[C@H](C)/C=C/C=C/C=C/1C" landed at 2.35
